Entries annotated with measured NT (rotarod), minimum dose neurotoxic in half or more animals tested, 0.5 h
Tested on: mice (rotarod test)
EXPERIMENT_DESCRIPTION: Neurotoxicity screening (NT), rotarod test, i.p. administration in mice
Assay type: in vivo
ASSAY_CONDITIONS: male, CF#1, mouse, in vivo, 0.5 h
Provide the reading as a plain figure in mg/kg.

# annotated cases, reported NT (rotarod), minimum dose neurotoxic in half or more animals tested, 0.5 h shown
Cl.O=C(CN1CCN(c2ccc(F)cc2)CC1)Nc1cccc(C(F)(F)F)c1 [Compound 19]	300
Cl.Cl.O=C(CN1CCN(Cc2ccccc2)CC1)Nc1cccc(Cl)c1 [Compound 11]	300
Cl.O=C(CN1CCOCC1)Nc1cccc(Cl)c1 [Compound 13]	300
Cl.Cl.O=C(CN1CCN(CCO)CC1)Nc1cccc(C(F)(F)F)c1 [Compound 23]	300
Cl.O=C(CN1CCN(c2ncccn2)CC1)Nc1cccc(C(F)(F)F)c1 [Compound 21]	300
Cl.O=C(CN1CCOCC1)Nc1cccc(C(F)(F)F)c1 [Compound 24]	100

Attention now turns to another entry.
In: Can you share its NT (rotarod), minimum dose neurotoxic in half or more animals tested, 0.5 h? I mean this molecule: O=C1NC(=O)C(c2ccccc2)(c2ccccc2)N1 [Phenytoin, reference compound]
Out: 100

====

Tested on: maximal electroshock (MES) seizures
EXPERIMENT_DESCRIPTION: MES test after oral administration in rats (screen and quantification)
Format: in vivo
ASSAY_CONDITIONS: p.o., 30 mg/kg, 0.5 h
REPORTED_ENDPOINT: MES, number of rats protected/number of rats tested, 0.5 h

In: Can you share its MES, number of rats protected/number of rats tested, 0.5 h? I mean this compound: `Cl.O=C(CN1CCN(c2cccc(C(F)(F)F)c2)CC1)Nc1cccc(C(F)(F)F)c1`
Out: 1/4

In: Param item: O=C1NC(=O)C(c2ccccc2)(c2ccccc2)N1 [Phenytoin, reference compound]
Out: 4/4

In: Param item: `Cl.O=C(CN1CCOCC1)Nc1cccc(Cl)c1`
Out: 1/4

In: Param item: `O=C(CN1CCN(Cc2ccccc2)CC1)Nc1cccc(C(F)(F)F)c1`
Out: 1/4

====

Entries annotated with measured dose showing neurotoxicity in the rotarod test (NT)
Tested on: mice (rotarod test)
EXPERIMENT_DESCRIPTION: Neurotoxicity screening (NT), rotarod test, i.p. administration in mice
Type: in vivo
ASSAY_CONDITIONS: male, CF#1, mouse, in vivo, ip
Provide the reading as a plain figure in mg/kg.

# annotated cases, reported dose showing neurotoxicity in the rotarod test (NT) shown
Cl.O=C(CN1CCN(c2ccc(F)cc2)CC1)Nc1cccc(C(F)(F)F)c1 [Compound 19]	300
O=C(CN1CCN(c2ccccc2)CC1)Nc1cccc(C(F)(F)F)c1 [Compound 14]	300
Cl.O=C(CN1CCOCC1)Nc1cccc(C(F)(F)F)c1 [Compound 24]	100
Cl.Cl.O=C(CN1CCN(Cc2ccccc2)CC1)Nc1cccc(Cl)c1 [Compound 11]	300

In: Can you share its dose showing neurotoxicity in the rotarod test (NT)? I mean this molecule: Cl.O=C(CN1CCOCC1)Nc1cccc(Cl)c1 [Compound 13]
Out: 300

====

Entries annotated with measured TD50 at 2 h
EXPERIMENT_DESCRIPTION: in vivo
ASSAY_CONDITIONS: male, Sprague-Dawley, rat, po

Cl.O=C(CN1CCN(c2cccc(C(F)(F)F)c2)CC1)Nc1cccc(C(F)(F)F)c1	> 500 mg/kg

Attention now turns to another entry.
In: Can you share its TD50 at 2 h? I mean this compound: O=C1NC(=O)C(c2ccccc2)(c2ccccc2)N1 [Phenytoin, reference compound]
Out: > 100 mg/kg
